test: Biodistribution studies in mice (radioiodinated compounds, % ID/g-tissue); type: in vivo; details: mouse, small/large intestine, iv, small/large intestine, 1', tracer level, but MDTA-Na 0.18M and MDTA-NMG 0.19M, read-out: Biodistribution, Sm/Lrg. Intestine 1'
Just a reminder that ties go to false: only tissue uptake at 1 min strictly below 2 %ID/g counts as true.

Lab note: tissue uptake at 1 min threshold 2 %ID/g. Does this molecule come in strictly under it? CC(=O)N(C)c1c(I)c(C(=O)Nc2ccc(CCCC(=O)O)cc2)c(I)c(N(C)C(C)=O)c1I
true

Report whether reported tissue uptake at 1 min is lower than 2 %ID/g (strictly) for CC(=O)N(C)c1c(I)c(C(=O)NCCCC(=O)O)c(I)c(N(C)C(C)=O)c1I
true

Is 2 %ID/g strictly greater than the molecule's reported tissue uptake at 1 min? molecule: CC(=O)N(C)c1c(I)c(C(=O)NCC(=O)O)c(I)c(N(C)C(C)=O)c1I
true

I'd appreciate it if you could check whether CC(=O)N(C)c1c(I)c(C(=O)NCCCCCCCCCCCC(=O)O)c(I)c(N(C)C(C)=O)c1I has tissue uptake at 1 min smaller than 2 %ID/g.
false

Does this molecule meet the criterion tissue uptake at 1 min < 2 %ID/g? CC(=O)N(C)c1c(I)c(C(=O)Nc2ccc(CCCCCCCCCCCCCCCCCCC(=O)O)cc2)c(I)c(N(C)C(C)=O)c1I
true

Further cases:
For CC(=O)N(C)c1c(I)c(C(=O)Nc2ccc(CCCCCCCCCCCCCCC(=O)O)cc2)c(I)c(N(C)C(C)=O)c1I , is the recorded tissue uptake at 1 min below the cut-off of 2 %ID/g?
false

Does the reported tissue uptake at 1 min of the following molecule sit strictly below 2 %ID/g? CC(=O)N(C)c1c(I)c(C(=O)Nc2ccc(CCCCCCCCCCC(=O)O)cc2)c(I)c(N(C)C(C)=O)c1I
true
